Biological target: T1, human IL-12 (human, UniProt P29460 23-328; P29459 23-219)
T1 construct: also called Interleukin-12
T1 sequence 1: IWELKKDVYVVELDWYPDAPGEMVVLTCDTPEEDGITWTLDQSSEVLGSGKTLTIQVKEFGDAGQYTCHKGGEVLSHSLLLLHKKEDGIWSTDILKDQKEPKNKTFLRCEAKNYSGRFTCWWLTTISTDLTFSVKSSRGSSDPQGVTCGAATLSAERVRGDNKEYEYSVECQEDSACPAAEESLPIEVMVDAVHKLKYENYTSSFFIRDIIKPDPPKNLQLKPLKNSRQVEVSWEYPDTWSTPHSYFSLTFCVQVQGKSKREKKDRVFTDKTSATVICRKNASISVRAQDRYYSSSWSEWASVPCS
T1 sequence 2: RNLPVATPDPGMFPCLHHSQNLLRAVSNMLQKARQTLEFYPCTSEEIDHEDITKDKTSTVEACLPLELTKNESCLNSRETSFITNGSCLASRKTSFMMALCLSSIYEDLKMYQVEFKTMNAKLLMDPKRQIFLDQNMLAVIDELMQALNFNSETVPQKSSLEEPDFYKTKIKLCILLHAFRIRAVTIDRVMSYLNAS
Assay: SPR (Biacore T200), 37 C, pH 7.4; captured antibody, IL-12 analyte
quantity: Kd (nM)
Numbers only, in nM.

Working through the 2 binders below one at a time, give Kd for each.
1. Anti-IL-12 antibody Ab1 variant Y91M VH/Y49A, Y87L VL (antibody, name in Kabat numbering, V domains shown, Ab1 with VH/VL interface substitutions; Kabat numbering) VH: QVQLVQSGAEVKKPGSSVKVSCKASGGTFSDYYLHWVRQAPGQGLEWMGWIDPENGDTEYAPKFQGRVTITADESTSTAYMELSSLRSEDTAVYMCARNKELRYFDVWGQGTLVTVSS VL: DIVMTQSPLSLPVTPGEPASISCRASQSISINLHWYQQKPGQAPRLLIAFASQSISGVPSRFSGSGSGTDFTLTISSLQPEDFATYLCQQSNSFPLTFGQGTKVEIKR
2. Anti-IL-12 antibody Ab1 variant -/P44S VL (antibody, V domains shown, Ab1 with VH/VL interface substitutions; Kabat numbering) VH: QVQLVQSGAEVKKPGSSVKVSCKASGGTFSDYYLHWVRQAPGQGLEWMGWIDPENGDTEYAPKFQGRVTITADESTSTAYMELSSLRSEDTAVYYCARNKELRYFDVWGQGTLVTVSS VL: DIVMTQSPLSLPVTPGEPASISCRASQSISINLHWYQQKPGQASRLLIYFASQSISGVPSRFSGSGSGTDFTLTISSLQPEDFATYYCQQSNSFPLTFGQGTKVEIKR

3.1
1.17

Which measured Kd value corresponds to Anti-IL-12 antibody Ab1 variant V37S, L45Q VH/Y49A, Y87M VL (antibody, name in Kabat numbering, V domains shown, Ab1 with VH/VL interface substitutions; Kabat numbering) VH: QVQLVQSGAEVKKPGSSVKVSCKASGGTFSDYYLHWSRQAPGQGQEWMGWIDPENGDTEYAPKFQGRVTITADESTSTAYMELSSLRSEDTAVYYCARNKELRYFDVWGQGTLVTVSS VL: DIVMTQSPLSLPVTPGEPASISCRASQSISINLHWYQQKPGQAPRLLIAFASQSISGVPSRFSGSGSGTDFTLTISSLQPEDFATYMCQQSNSFPLTFGQGTKVEIKR ? 2.92
